# Test system: HepG2
# experiment: Antiproliferative activity against human HepG2 cells after 72 hrs by SRB assay
# Type: functional, cell-based
# stated.conditions: Homo sapiens, HepG2, 72 h; read-out: IC50
measurement.type: IC50 (µM)
Give the value, in units of µM, as a plain number.

-- ask Query for HepG2: what IC50 does the record show for "Nc1nc(F)nc2c1ncn2[C@@H]1O[C@H](CO)[C@@H](O)[C@@H]1O" ?
-- reply 20

-- ask How about this molecule: "Nc1nc(Cl)nc2c1ncn2[C@H]1C[C@H](O)[C@@H](CO)O1"
-- reply 0.04

-- ask How about this molecule: "OC[C@H]1O[C@@H](n2cnc3c(NCCC4=CCCCC4)nc(Cl)nc32)[C@H](O)[C@@H]1O"
-- reply 40
